- study.target: human sphingosine kinase type 1 (hSPHK1) (Homo sapiens, UniProt Q9NYA1)
- Sequence (Q9NYA1 whole entry): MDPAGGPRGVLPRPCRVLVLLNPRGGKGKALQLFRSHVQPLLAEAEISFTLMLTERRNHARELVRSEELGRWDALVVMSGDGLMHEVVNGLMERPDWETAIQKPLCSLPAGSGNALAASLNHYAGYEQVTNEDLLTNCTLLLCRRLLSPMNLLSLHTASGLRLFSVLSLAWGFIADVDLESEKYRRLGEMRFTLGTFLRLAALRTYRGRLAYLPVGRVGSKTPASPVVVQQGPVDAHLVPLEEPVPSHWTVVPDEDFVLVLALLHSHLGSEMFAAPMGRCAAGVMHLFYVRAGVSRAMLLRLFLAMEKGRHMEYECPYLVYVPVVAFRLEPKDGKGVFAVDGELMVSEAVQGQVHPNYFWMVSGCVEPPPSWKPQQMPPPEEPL
- method.description: Sphingosine kinase assay, recombinant human SPHK1 ([32P]S1P product, scintillation counting)
- details: read-out: activity hSPHK1 (range estimate of KI)
pKi: −log10 of the molar value. Where a name gives a salt, the structure may show the parent alone.
The following molecules are shown together with reported pKi values.
metric: pKi

>>> reported_measurement("CCCCc1ccc(CCc2ccc(-c3noc([C@@H]4CCCN4C(=N)N)n3)cc2C(F)(F)F)cc1 [Compound 36A, hydrochloride]")
"< 5.00"
>>> reported_measurement("N=C(N)N1CC[C@H](O)[C@H]1c1nc(-c2ccc(OCc3ccc(C(F)(F)F)cc3)c(C(F)(F)F)c2)no1 [Compound 24A]")
"5.00 to 6.00"
>>> reported_measurement("N=C(N)N1CC[C@H](O)[C@H]1c1nc(-c2ccc(CCC3CCCC3)c(C(F)(F)F)c2)no1 [Compound 43A, hydrochloride]")
"5.00 to 6.00"
>>> reported_measurement("COc1ccc(CCc2ccc(-c3noc([C@@H]4[C@@H](O)CCN4C(=N)N)n3)cc2C(F)(F)F)cc1 [Compound 41A, hydrochloride]")
"5.00 to 6.00"
>>> reported_measurement("COCCCCOc1ccc(-c2noc([C@@H]3CCCN3C(=N)N)n2)cc1C(F)(F)F [Compound 46A, 2,2,2-trifluoroacetate]")
"< 5.00"
>>> reported_measurement("CCCC=CCOc1ccc(-c2noc([C@@H]3CCCN3C(=N)N)n2)cc1C(F)(F)F [Compound 80A, 2,2,2-trifluoroacetate]")
"< 5.00"

* * *

- study.target: human sphingosine kinase type 2 (hSPHK2) (Homo sapiens)
- method.description: Sphingosine kinase assay, recombinant human SPHK2 ([32P]S1P product, scintillation counting)
- details: read-out: activity hSPHK2 (range estimate of KI)
metric: Ki

>>> reported_measurement("CCCCCCCCOc1ccc(-c2noc([C@@H]3C[C@H](F)CN3C(=N)N)n2)cc1C(F)(F)F [Compound 48A, 2,2,2-trifluoroacetate]")
"1 to 10 µM"
>>> reported_measurement("CCCCCCCCCOc1ccc(-c2noc([C@@H]3CCCN3C(=N)N)n2)cc1C(F)(F)F")
"< 1 µM"
>>> reported_measurement("CCCCCCCCCn1ccc2c(-c3noc([C@@H]4CCCN4C(=N)N)n3)cccc21 [Compound 10B]")
"< 1 µM"

* * *

- study.target: human sphingosine kinase type 2 (hSPHK2) (Homo sapiens, UniProt Q9NRA0)
- Sequence (Q9NRA0 whole entry): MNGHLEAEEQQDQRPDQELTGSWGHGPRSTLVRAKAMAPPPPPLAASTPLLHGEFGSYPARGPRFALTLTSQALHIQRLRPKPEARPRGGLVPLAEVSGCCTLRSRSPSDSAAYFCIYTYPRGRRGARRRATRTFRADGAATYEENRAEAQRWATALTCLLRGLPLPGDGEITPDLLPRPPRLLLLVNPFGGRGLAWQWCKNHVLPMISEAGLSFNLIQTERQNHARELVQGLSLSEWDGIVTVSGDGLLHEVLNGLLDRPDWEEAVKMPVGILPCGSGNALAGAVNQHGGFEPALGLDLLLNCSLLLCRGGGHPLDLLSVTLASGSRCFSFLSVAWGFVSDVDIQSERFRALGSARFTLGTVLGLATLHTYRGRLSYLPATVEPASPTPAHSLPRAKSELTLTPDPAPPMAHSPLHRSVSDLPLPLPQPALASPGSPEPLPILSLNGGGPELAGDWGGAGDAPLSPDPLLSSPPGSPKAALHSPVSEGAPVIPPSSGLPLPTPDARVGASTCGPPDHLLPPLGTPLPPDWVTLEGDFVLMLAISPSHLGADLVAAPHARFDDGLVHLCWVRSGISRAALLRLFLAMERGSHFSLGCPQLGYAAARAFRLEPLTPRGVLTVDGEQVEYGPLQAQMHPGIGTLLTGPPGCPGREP
- method.description: Sphingosine kinase assay, recombinant human SPHK2 ([32P]S1P product, scintillation counting)
- details: read-out: activity hSPHK2 (range estimate of KI)
Structures can show the parent of a compound that is named as a salt.
Property: Ki; scope: individual compounds
metric: Ki

>>> reported_measurement("N=C(N)N1CCC[C@H]1c1nc(-c2ccc(CCC3CC3)c(C(F)(F)F)c2)no1 [Compound 38A, hydrochloride]")
"1000 to 10000 nM"
>>> reported_measurement("N=C(N)N1CC[C@H](O)[C@H]1c1nc(-c2ccc(OCC3CCCCC3)c(C(F)(F)F)c2)no1 [Compound 96A]")
"< 1000 nM"
>>> reported_measurement("N=C(N)N1CCC[C@H]1c1nc(-c2ccc3cc(OCc4ccc(C(F)(F)F)cc4)ccc3c2)no1 [Compound 52A]")
"1000 to 10000 nM"
